// provenance: the supplement of paper PMC4862054

Tested on: HCC1143
assay_text: normalised response (% of control), CellTiter-Glo; higher = more viable cells (100 = DMSO, 0 = benzethonium chloride kill control)
condition_set: incubation time: 72 h
Classification field: enter Condition met for normalised response values not below 50%, Condition not met for values below it.

// known answers, use as guide
compound	classification
CC(=O)[C@]1(O)Cc2c(O)c3c(c(O)c2[C@@H](O[C@H]2C[C@H](N)[C@H](O)[C@H](C)O2)C1)C(=O)c1ccccc1C3=O [Idarubicin] (1000 nM)	Condition not met
C=CCn1c(=O)c2cnc(Nc3ccc(N4CCN(C)CC4)cc3)nc2n1-c1cccc(C(C)(C)O)n1 [MK1775] (10000 nM)	Condition not met
COc1cc(Nc2c(C#N)cnc3cc(OCCCN4CCN(C)CC4)c(OC)cc23)c(Cl)cc1Cl [Bosutinib] (10000 nM)	Condition not met
CC1(C)CCC(c2ccc(Cl)cc2)=C(CN2CCN(c3ccc(C(=O)NS(=O)(=O)c4ccc(N[C@H](CCN5CCOCC5)CSc5ccccc5)c(S(=O)(=O)C(F)(F)F)c4)cc3)CC2)C1 [Navitoclax] (10000 nM)	Condition met

Does the compound CN(C)C(=N)NC(=N)N [Metformin] (100000 nM) have recorded normalised response that is 50% or more?
Condition met

Does the compound CN(Cc1cnc2nc(N)nc(N)c2n1)c1ccc(C(=O)N[C@@H](CCC(=O)O)C(=O)O)cc1 [Methotrexate] (50000 nM) have recorded normalised response that is 50% or more?
Condition met

Does the compound CC1(COc2ccc3c(c2)ncn3-c2ccc3cccc(N4CCC(N)CC4)c3n2)COC1 [Crenolanib] (10000 nM) have recorded normalised response that is 50% or more?
Condition met

###

Tested on: MCF-10A
assay_text: drug sensitivity score (DSS), CellTox Green (DSS (AUC-based score)); higher = stronger drug effect (viability inhibition or cytotoxicity); extreme values may be limits of the assay
condition_set: incubation time: 72 h
property: drug sensitivity score
Answers are plain numbers.

Recorded drug sensitivity score, per entry:
compound	value
C=CCN(/C=C1/C(=O)O[C@H](COC)[C@@]2(C)C1=C(O)C(=O)C1=C2[C@H](OC(C)=O)C[C@]2(C)C(=O)CC[C@@H]12)CC=C [Sonolisib]	0
C/C(=C\c1csc(C)n1)[C@@H]1C[C@@H]2O[C@]2(C)CCC[C@H](C)[C@H](O)[C@@H](C)C(=O)C(C)(C)[C@@H](O)CC(=O)N1 [Ixabepilone]	0
O=[N+]([O-])c1ccc2c(c1)S(=O)(=O)C=C2 [Stattic]	19.5
CCNC(=O)c1noc(-c2cc(C(C)C)c(O)cc2O)c1-c1ccc(CN2CCOCC2)cc1 [NVP-AUY922]	13.6
CN(C)C(=N)NC(=N)N [Metformin]	0
Cn1cc(C2=C(c3cn(C4CCN(Cc5ccccn5)CC4)c4ccccc34)C(=O)NC2=O)c2ccccc21 [Enzastaurin]	0

Looking up CN(Cc1cnc2nc(N)nc(N)c2n1)c1ccc(C(=O)N[C@@H](CCC(=O)O)C(=O)O)cc1 [Methotrexate] , I found its drug sensitivity score recorded as 0

###

Tested on: MDA-MB-436
assay_text: normalised response (% of control), CellTiter-Glo; higher = more viable cells (100 = DMSO, 0 = benzethonium chloride kill control)
condition_set: incubation time: 72 h
property: normalised response (%)
Answers are plain numbers, in %.

Recorded normalised response, per entry:
compound	measurement_target	normalised response (%)
CO[C@@H]1[C@H](N(C)C(=O)c2ccccc2)C[C@H]2O[C@]1(C)n1c3ccccc3c3c4c(c5c6ccccc6n2c5c31)C(=O)NC4 [Midostaurin] (1 nM)	MDA-MB-436	83
CN[C@@H](C)C(=O)N[C@H]1CN(C(=O)CC(C)C)CC[C@H]2CC[C@@H](C(=O)NC(c3ccccc3)c3ccccc3)N2C1=O [AT-406] (10 nM)	MDA-MB-436	97.5

I need normalised response for every entry listed below, if you could help.
1. CC(C)n1cnc2c(NCCc3ccc(O)cc3)nc(-c3csc4ccccc34)nc21 [StemRegenin 1] (1 nM)
2. CCNC(=O)c1noc(-c2cc(C(C)C)c(O)cc2O)c1-c1ccc(CN2CCOCC2)cc1 [NVP-AUY922] (1 nM)
3. CC(O)(CS(=O)(=O)c1ccc(F)cc1)C(=O)Nc1ccc(C#N)c(C(F)(F)F)c1 (stereo unspecified) [Bicalutamide] (10 nM)
4. Cc1cc(Nc2nc(N[C@@H](C)c3ncc(F)cn3)ncc2Cl)[nH]n1 [AZD1480] (100 nM)

1. 105
2. 104
3. 111
4. 103

###

Tested on: MDA-MB-436
assay_text: normalised response (% of control), CellTiter-Glo; higher = more viable cells (100 = DMSO, 0 = benzethonium chloride kill control)
condition_set: incubation time: 72 h
For each of the compounds below, state its normalised response.
Numbers only, in %.

Recorded normalised response, per entry:
compound	measurement_target	value
O=C(O)CNC(=O)c1c(O)c2ccccc2n(Cc2ccccc2)c1=O [IOX-2] (500 nM)	MDA-MB-436	94.4
CC1(COc2ccc3c(c2)ncn3-c2ccc3cccc(N4CCC(N)CC4)c3n2)COC1 [Crenolanib] (100 nM)	MDA-MB-436	103

I need normalised response for every entry listed below, if you could help.
1. CN(Cc1cnc2nc(N)nc(N)c2n1)c1ccc(C(=O)N[C@@H](CCC(=O)O)C(=O)O)cc1 [Methotrexate] (500 nM)
2. CC(=O)[C@]1(O)Cc2c(O)c3c(c(O)c2[C@@H](O[C@H]2C[C@H](N)[C@H](O)[C@H](C)O2)C1)C(=O)c1ccccc1C3=O [Idarubicin] (10 nM)
3. COc1ccc(S(=O)(=O)Nc2cccnc2Nc2ccc(O)cc2)cc1 [ABT-751] (100 nM)

1: 91.9; 2: 95.9; 3: 98.5

I need normalised response for every entry listed below, if you could help.
1. CCNC(=O)c1noc(-c2cc(C(C)C)c(O)cc2O)c1-c1ccc(CN2CCOCC2)cc1 [NVP-AUY922] (10 nM)
2. O=C(CCCCCCC(=O)Nc1ccccc1)NO [Vorinostat] (100 nM)

1: 56.4; 2: 97

###

Tested on: HDQ-P1
assay_text: normalised response (% of control), CellTiter-Glo; higher = more viable cells (100 = DMSO, 0 = benzethonium chloride kill control)
condition_set: incubation time: 72 h
property: normalised response (%)
Answers are plain numbers, in %.

Recorded normalised response, per entry:
compound	property	value
Cc1cn(-c2cc(NC(=O)c3ccc(C)c(Nc4nccc(-c5cccnc5)n4)c3)cc(C(F)(F)F)c2)cn1 [Nilotinib] (1 nM)	normalised response	96.9
O=C(CCCCCCC(=O)Nc1ccccc1)NO [Vorinostat] (1000 nM)	normalised response	85
CC(C)C[C@H](NC(=O)[C@@H](COC(C)(C)C)NC(=O)[C@H](Cc1ccc(O)cc1)NC(=O)[C@H](CO)NC(=O)[C@H](Cc1c[nH]c2ccccc12)NC(=O)[C@H](Cc1cnc[nH]1)NC(=O)[C@@H]1CCC(=O)N1)C(=O)N[C@@H](CCCNC(=N)N)C(=O)N1CCC[C@H]1C(=O)NNC(N)=O [Goserelin] (10 nM)	normalised response	101
CCN(CC)CCCC(C)Nc1ccnc2cc(Cl)ccc12 (configuration not stated) [Chloroquine] (100 nM)	normalised response	102
Cc1nc(C(=O)NCC(=O)O)c(O)c2ccc(Oc3ccccc3)cc12 [FG-4592] (1 nM)	normalised response	106

I need normalised response for every entry listed below, if you could help.
1. CN(C)C(=N)NC(=N)N [Metformin] (100 nM)
2. CC(C)(C)NC(=O)[C@H]1CC[C@H]2[C@@H]3CC[C@H]4NC(=O)C=C[C@]4(C)[C@H]3CC[C@]12C [Finasteride] (1000 nM)

[99.4, 105]

###

For each of the molecules below, state its normalised response.
Test system: CAL-85-1
assay_text: normalised response (% of control), CellTiter-Glo; higher = more viable cells (100 = DMSO, 0 = benzethonium chloride kill control)
condition_set: incubation time: 72 h
Numbers only, in %.

Recorded normalised response, per entry:
molecule	readout_units	normalised response
O=[N+]([O-])c1ccc2c(c1)S(=O)(=O)C=C2 [Stattic] (5000 nM)	%	1.59
CC(C)(C)NC(=O)[C@H]1CC[C@H]2[C@@H]3CC[C@H]4NC(=O)C=C[C@]4(C)[C@H]3CC[C@]12C [Finasteride] (1 nM)	%	96
CCNC(=O)c1noc(-c2cc(C(C)C)c(O)cc2O)c1-c1ccc(CN2CCOCC2)cc1 [NVP-AUY922] (0.1 nM)	%	107

Looking up COc1ccc(S(=O)(=O)Nc2cccnc2Nc2ccc(O)cc2)cc1 [ABT-751] (10 nM) , I found its normalised response recorded as 97.5

###

Tested on: HCC1937
condition_set: 72 h
property: EC50, CellTiter-Blue viability (µM)
Give bare numbers, in µM.

Recorded EC50, CellTiter-Blue viability, per entry:
compound	value
C=CCn1c(=O)c2cnc(Nc3ccc(N4CCN(C)CC4)cc3)nc2n1-c1cccc(C(C)(C)O)n1	0.19
Cn1cc(C2=C(c3cn(C4CCN(Cc5ccccn5)CC4)c4ccccc34)C(=O)NC2=O)c2ccccc21	5.37
Nc1ccn([C@@H]2O[C@H](CO)[C@@H](O)C2(F)F)c(=O)n1	0.0205
CO[C@@H]1[C@H](N(C)C(=O)c2ccccc2)C[C@H]2O[C@]1(C)n1c3ccccc3c3c4c(c5c6ccccc6n2c5c31)C(=O)NC4	0.237
C/C(=C\c1csc(C)n1)[C@@H]1C[C@@H]2O[C@]2(C)CCC[C@H](C)[C@H](O)[C@@H](C)C(=O)C(C)(C)[C@@H](O)CC(=O)N1 [Ixabepilone]	0.371

I need EC50, CellTiter-Blue viability for every entry listed below, if you could help.
1. COc1ccc(S(=O)(=O)Nc2cccnc2Nc2ccc(O)cc2)cc1
2. Cc1cn(-c2cc(NC(=O)c3ccc(C)c(Nc4nccc(-c5cccnc5)n4)c3)cc(C(F)(F)F)c2)cn1

1. 0.349
2. 0.117
